The values you see were collected from the supplement of paper PMC11061612.

Below is a list of entries, each paired with its recorded combination Emax value.
# Test system: GCIY (Gastric Carcinoma)
# protocol: combination Emax (second highest fraction inhibited in the dose matrix, 72 h); higher = more inhibition; extreme values may be limits of the assay
Reply with the value as a number alone.

Challenge: What value of measured combination Emax is listed for C[C@@H](Nc1cc(F)cc(F)c1)c1cc(C(=O)N(C)C)cc2c(=O)cc(N3CCOCC3)oc12 [AZD8186] + CC(=O)c1c(C)c2cnc(Nc3ccc(N4CCNCC4)cn3)nc2n(C2CCCC2)c1=O [Palbociclib] (first compound max 10 µM, 7x7, partner max 10 µM) ?
Response given: 0.662

Field: next compound
Challenge: What value of measured combination Emax is listed for CN(CCO)CC[C@H](CSc1ccccc1)Nc1ccc(S(=O)(=O)NC(=O)c2ccc(N3CCC([C@@H](O)c4ccccc4-c4ccc(Cl)cc4)CC3)cc2)cc1S(=O)(=O)C(F)(F)F [AZD4320] + C[C@@H]1COCCN1C2=NC(=NC(=C2)C3(CC3)[S@](=N)(=O)C)C4=C5C=CNC5=NC=C4 [AZD6738] (first compound max 1 µM, 7x7, partner max 10 µM) ?
Response given: 0.918

* * *

# Test system: SBC-5 (Small Cell Lung Carcinoma)
# protocol: combination Emax (second highest fraction inhibited in the dose matrix, 72 h); higher = more inhibition; extreme values may be limits of the assay
endpointLabel: combination Emax
Reply with the value as a number alone.

Observe how each entry below is paired with its result.
Challenge: What value of measured combination Emax is listed for Cc1c2c(nn1C)CSCc1cc(n(C)n1)CSc1cc(c3ccccc3c1)OCCCc1c(C(=O)O)n(C)c3c-2c(Cl)ccc13 [AZD5991] + C1CN(CCC1(C(=O)N[C@@H](CCO)C2=CC=C(C=C2)Cl)N)C3=NC=NC4=C3C=CN4 [Capivasertib] (first compound max 1 µM, 7x7, partner max 3 µM) ?
Response given: 0.471

Challenge: What value of measured combination Emax is listed for Cn1cnc2c(F)c(Nc3ccc(Br)cc3Cl)c(C(=O)NOCCO)cc21 [Selumetinib] + C[C@@H]1COCCN1C2=NC(=NC(=C2)C3(CC3)[S@](=N)(=O)C)C4=C5C=CNC5=NC=C4 [AZD6738] (first compound max 10 µM, 7x7, partner max 10 µM) ?
Response given: 0.814

Challenge: What value of measured combination Emax is listed for CN(CCO)CC[C@H](CSc1ccccc1)Nc1ccc(S(=O)(=O)NC(=O)c2ccc(N3CCC([C@@H](O)c4ccccc4-c4ccc(Cl)cc4)CC3)cc2)cc1S(=O)(=O)C(F)(F)F [AZD4320] + C1CN(CCC1(C(=O)N[C@@H](CCO)C2=CC=C(C=C2)Cl)N)C3=NC=NC4=C3C=CN4 [Capivasertib] (first compound max 1 µM, 7x7, partner max 3 µM) ?
Response given: 0.175

More entries:
Challenge: What value of measured combination Emax is listed for NC1(C(=O)N[C@@H](CCO)c2ccc(Cl)cc2)CCN(c2ncnc3[nH]ccc23)CC1 [Capivasertib] + CC(C)n1c(=O)n(C)c2cnc3cc(F)c(-c4ccc(OCCCN5CCCCC5)nc4)cc3c21 [AZD1390] (first compound max 10 µM, 7x7, partner max 0.3 µM) ?
Response given: 0.281

Challenge: What value of measured combination Emax is listed for CC1(C)CCC(CN2CCN(c3ccc(C(=O)NS(=O)(=O)c4ccc(NCC5CCOCC5)c([N+](=O)[O-])c4)c(Oc4cnc5[nH]ccc5c4)c3)CC2)=C(c2ccc(Cl)cc2)C1 [Venetoclax] + CCN(CCO)CCCOc1ccc2c(Nc3cc(CC(=O)Nc4cccc(F)c4)[nH]n3)ncnc2c1 [AZD2811] (first compound max 1 µM, 7x7, partner max 1 µM) ?
Response given: 0.266

Challenge: What value of measured combination Emax is listed for Cc1cc2ncnn2cc1Nc1ncc2c(n1)n(C1CCOCC1)c(=O)n2C [AZD7648] + C=CCn1c(=O)c2cnc(Nc3ccc(N4CCN(C)CC4)cc3)nc2n1-c1cccc(C(C)(C)O)n1 [AZD1775] (first compound max 10 µM, partner max 1 µM) ?
Response given: 0.359

Challenge: What value of measured combination Emax is listed for Cc1cc2ncnn2cc1Nc1ncc2c(n1)n(C1CCOCC1)c(=O)n2C [AZD7648] + C[C@@H]1COCCN1C2=NC(=NC(=C2)C3(CC3)[S@](=N)(=O)C)C4=C5C=CNC5=NC=C4 [AZD6738] (first compound max 10 µM, 7x7, partner max 10 µM) ?
Response given: 0.481
